- Tested on: K-562
- TEST PARAMETERS: 72 h
Recorded IC50 (cell viability) for the following molecules
The answer is to be given in µM; state only the numeric part.

Q: Which value of IC50 (cell viability) has been reported for COc1cc(/C=C/C(=O)N2CCC=CC2=O)cc(OC)c1OC [Piperlongumine] in the records?
Ans: 1.95

Q: // repeat for C=C(C=NNC(=N)N)NNC(=N)N [Mitoguazone] and report
Ans: 1.32

Q: Entry to check: C=C(C)[C@H]1Cc2c(ccc3c2O[C@@H]2COc4cc(OC)c(OC)cc4[C@@H]2C3=O)O1 [Rotenone]
Ans: 0.0407

Q: Here is the next molecule: Cc1c(-c2ccc(-c3ccccc3F)cc2)nc2ccc(F)cc2c1C(=O)O [Brequinar]
Ans: 8.59
